# assay system: mGluR5 receptor (Sus scrofa, UniProt I3LUI7)
# Construct: pig brain hemispheres without medulla, cerebellum and pons ... differential centrifugation at 900×g and 40,000×g
# Sequence (I3LUI7 1-1212): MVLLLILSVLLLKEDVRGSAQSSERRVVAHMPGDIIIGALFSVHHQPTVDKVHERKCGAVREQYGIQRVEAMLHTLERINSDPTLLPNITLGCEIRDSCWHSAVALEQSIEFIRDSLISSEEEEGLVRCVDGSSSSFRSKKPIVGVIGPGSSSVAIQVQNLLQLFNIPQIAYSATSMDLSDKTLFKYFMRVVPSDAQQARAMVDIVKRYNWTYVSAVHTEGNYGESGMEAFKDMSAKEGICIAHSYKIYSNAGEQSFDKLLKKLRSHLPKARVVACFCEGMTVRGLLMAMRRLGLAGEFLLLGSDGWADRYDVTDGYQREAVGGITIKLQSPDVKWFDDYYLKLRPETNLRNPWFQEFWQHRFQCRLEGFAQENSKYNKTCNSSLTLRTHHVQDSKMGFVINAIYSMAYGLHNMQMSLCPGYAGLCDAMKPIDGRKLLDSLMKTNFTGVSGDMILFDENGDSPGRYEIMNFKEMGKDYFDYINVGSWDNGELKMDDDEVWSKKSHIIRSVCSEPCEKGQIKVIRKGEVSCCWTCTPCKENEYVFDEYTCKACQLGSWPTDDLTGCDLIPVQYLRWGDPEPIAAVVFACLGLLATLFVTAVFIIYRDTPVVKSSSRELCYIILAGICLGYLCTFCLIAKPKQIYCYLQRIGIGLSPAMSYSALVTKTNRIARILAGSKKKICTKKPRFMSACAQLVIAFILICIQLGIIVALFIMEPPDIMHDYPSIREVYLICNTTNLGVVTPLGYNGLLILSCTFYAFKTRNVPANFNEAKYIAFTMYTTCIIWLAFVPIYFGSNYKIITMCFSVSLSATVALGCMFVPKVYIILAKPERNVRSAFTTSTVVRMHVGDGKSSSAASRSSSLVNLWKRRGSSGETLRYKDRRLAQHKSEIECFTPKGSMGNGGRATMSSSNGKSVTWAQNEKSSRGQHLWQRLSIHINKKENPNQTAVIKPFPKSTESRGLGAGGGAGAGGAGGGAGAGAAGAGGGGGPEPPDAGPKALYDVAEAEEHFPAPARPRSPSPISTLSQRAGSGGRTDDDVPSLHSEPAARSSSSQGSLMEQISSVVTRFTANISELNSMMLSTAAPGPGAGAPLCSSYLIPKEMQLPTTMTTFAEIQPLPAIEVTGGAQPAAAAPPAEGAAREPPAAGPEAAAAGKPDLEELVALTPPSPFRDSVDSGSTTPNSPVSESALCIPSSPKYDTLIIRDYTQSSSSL
# protocol description: Inhibition of [^3H]-MPEP binding in the mGluR5 receptor binding assay (pig brain homogenate)
# conditions used: 1 μM test compound, 5 nM [^3H]-MPEP
measurement label: inhibition at 1 µM (%)

CC(C)(C)c1csc(N2CCC(NC(=O)C#Cc3ccccc3)C2)n1 (stereo not drawn) [Example 60]
30

1: Cc1cnc(N2CCC(NC(=O)C#Cc3cccc(F)c3)C2)s1 (stereo not drawn) [Example 81]
2: Cc1cccc(C#CC(=O)NC2CCN(c3ncc(C)s3)C2)c1 (stereo not drawn) [Example 74]
Query string: Exercise: compare 1 and 2 ; which one has the greater inhibition at 1 µM? Answer by quoting the chosen item's label.
Result string: 2
(2: 89%, 1: 57%)

====

# assay system: mGluR5 receptor (Sus scrofa, UniProt I3LUI7)
# Construct: pig brain hemispheres without medulla, cerebellum and pons ... differential centrifugation at 900×g and 40,000×g
# protocol description: Inhibition of [^3H]-MPEP binding in the mGluR5 receptor binding assay (pig brain homogenate)
# conditions used: 1 μM test compound, 5 nM [^3H]-MPEP
measurement label: inhibition at 1 µM (%)

Cc1cnc(N2CCC(NC(=O)C#Cc3cccc(C(F)(F)F)c3)C2)s1 (stereo not drawn)
23
Cc1cnc(N2CCC(NC(=O)C#Cc3ccccc3F)C2)s1 (stereo not drawn)
21
Cc1csc(N2CCC(NC(=O)C#Cc3ccccc3F)C2)n1 (stereo not drawn)
50
Cc1nc(N2CCC(NC(=O)C#Cc3cccc(C(F)(F)F)c3)C2)sc1C (stereo not drawn)
41
Cc1nc(N2CCC(NC(=O)C#Cc3ccccc3)C2)sc1C (stereo not drawn)
48

a: Cc1csc(N2CCC(NC(=O)C#Cc3cccc(F)c3)C2)n1 (stereo not drawn)
b: CC(C)(C)c1csc(N2CCC(NC(=O)C#Cc3ccccc3F)C2)n1 (stereo not drawn)
c: COc1cccc(C#CC(=O)NC2CCN(c3nc(C)cs3)C2)c1 (stereo not drawn)
Query string: Task for the reader: rank each entry by its inhibition at 1 µM, from the minimum upward. The response must list the labels following the requested ordering.
Result string: b, c, a

====

# assay system: mGluR5 receptor (Sus scrofa)
# Construct: pig brain hemispheres without medulla, cerebellum and pons ... differential centrifugation at 900×g and 40,000×g
# protocol description: Inhibition of [^3H]-MPEP binding in the mGluR5 receptor binding assay (pig brain homogenate)
# conditions used: 1 μM test compound, 5 nM [^3H]-MPEP
measurement label: inhibition at 1 µM (%)

Worked examples, 3 compounds total:
Cc1ccc(C#CC(=O)NC2CCN(c3ncc(C)s3)C2)cc1 (centres unmarked) [Example 73]
18
Cc1csc(N2CCC(NC(=O)C#Cc3ccccc3)C2)n1 (centres unmarked) [Example 45]
59
Cc1csc(N2CCC(NC(=O)C#Cc3cccc(C(F)(F)F)c3)C2)n1 (centres unmarked) [Example 71]
59

a: Cc1cccc(C#CC(=O)NC2CCN(c3nc(C(C)(C)C)cs3)C2)c1 (centres unmarked) [Example 99]
b: Cc1cccc(C#CC(=O)NC2CCN(c3nc(C)c(C)s3)C2)c1 (centres unmarked) [Example 82]
Query string: Compare inhibition at 1 µM: is it lower for a or for b ? Answer by quoting the chosen item's label.
Result string: a
(a: 46%, b: 81%)
